Attribution: the NIST ThermoML archive (doi:10.1021/acs.jced.5b00662)

Readings of speed of sound for the listed compounds
- Condition Context: 283.15 K; 101.33 kPa; Liquid; Sing-around technique in a fixed-path interferometer
# value in m/s; strip the unit string

// below: answered compounds
# Smiles Code, speed of sound [m/s]
data = [
    ("OCCO", 1689.9),
    ("OCCOCCOCCO", 1658.7),
    ("COCCOCCOC", 1340.7),
    ("CCOCCOCCO", 1428.9),
    ("CCOCCO", 1360.6),
    ("COCCOCCOCCOC", 1401.4),
    ("COCCOCCOCCOCCOC", 1439.7),
    ("OCCOCCO", 1615.9),
]

Lab note: CCOCCOCCOCC gave speed of sound of 1303.4

Lab note: COCCOCCO gave speed of sound of 1467.7

----------
- Condition Context: 323.15 K; 101.33 kPa; Liquid; Concentric cylinders viscometry
Classify by viscosity. Ranges: range A: < 1 mPa·s; range B: ≥ 1 mPa·s and < 2 mPa·s; range C: ≥ 2 mPa·s

The examples below pair each entry with its known result.
# Smiles Code, Group
records = [
    ("CCOCCO", "range B"),
    ("OCCO", "range C"),
]

Band of COCCOCCOCCOC ?
range B

Band of OCCOCCOCCO ?
range C

Band of OCCOCCO ?
range C

----------
- Condition Context: 343.15 K; 101.33 kPa; Liquid; Concentric cylinders viscometry
Readings of viscosity for the listed compounds
# value in mPa·s; strip the unit string

# Smiles Code, Measurement Name, Units Label, Recorded Measurement
data = [
    ("OCCO", "viscosity", "mPa·s", 4.01),
    ("OCCOCCO", "viscosity", "mPa·s", 5.718),
    ("CCOCCOCCO", "viscosity", "mPa·s", 1.456),
    ("COCCOCCO", "viscosity", "mPa·s", 1.372),
    ("COCCOCCOCCOCCOC", "viscosity", "mPa·s", 1.456),
    ("COCCOCCOCCOC", "viscosity", "mPa·s", 0.962),
]

Lab note: COCCOCCOC gave viscosity of 0.566

Lab note: OCCOCCOCCO gave viscosity of 7.137

Lab note: CCOCCOCCOCC gave viscosity of 0.658

Lab note: CCOCCO gave viscosity of 0.829

----------
- Condition Context: 308.15 K; 101.33 kPa; Liquid; Sing-around technique in a fixed-path interferometer
Measurement Name: speed of sound (m/s)
# value in m/s; strip the unit string

Lab note: CCOCCOCCO gave speed of sound of 1339

Lab note: CCOCCO gave speed of sound of 1268.6

Lab note: COCCOCCOCCOC gave speed of sound of 1303.6

Lab note: COCCOCCO gave speed of sound of 1380.9

Lab note: COCCOCCOCCOCCOC gave speed of sound of 1344.3

Lab note: OCCOCCOCCO gave speed of sound of 1581.1

----------
- Condition Context: 328.15 K; 101.33 kPa; Liquid; Vibrating tube method
Readings of mass density for the listed compounds
# value in kg/m3; strip the unit string

// below: answered compounds
# Compound, Units Label, mass density
data = [
    ("OCCO [1,2-ethanediol]", "kg/m3", 1089.8),
    ("COCCOCCOCCOCCOC [2,5,8,11,14-pentaoxapentadecane]", "kg/m3", 980.2),
    ("CCOCCO [2-ethoxyethan-1-ol]", "kg/m3", 899.9),
    ("CCOCCOCCO [3,6-dioxa-1-octanol]", "kg/m3", 958.1),
    ("CCOCCOCCOCC [diethylene glycol diethyl ether]", "kg/m3", 875.6),
    ("OCCOCCO [diethylene glycol]", "kg/m3", 1092.5),
    ("COCCOCCOCCOC [2,5,8,11-tetraoxadodecane]", "kg/m3", 952.9),
    ("OCCOCCOCCO [triethylene glycol]", "kg/m3", 1097.3),
    ("COCCOCCOC [2,5,8-trioxanonane]", "kg/m3", 910.1),
]

Lab note: COCCOCCO [2-(2-methoxyethoxy)ethanol] gave mass density of 989.8
